Molecular target: Hmlalpha2 (UniProt P0CY09)
Sequence: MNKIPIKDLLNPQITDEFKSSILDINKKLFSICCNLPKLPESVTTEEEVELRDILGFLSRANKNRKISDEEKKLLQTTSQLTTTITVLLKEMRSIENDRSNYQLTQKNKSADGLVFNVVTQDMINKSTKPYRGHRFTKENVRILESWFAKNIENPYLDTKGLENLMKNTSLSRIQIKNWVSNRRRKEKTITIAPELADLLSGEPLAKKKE
Assay: PBM E-score (8-mer binding enrichment) (E-score (-0.5 to 0.5)); higher = stronger / more preferred TF binding
Settings: protein concentration: 200 nM; construct: GST-full length
In all, about 33,000 sequences were measured (“E-score (-0.5 to 0.5)”: median about -0.04, highest 2% from about 0.36 on). This excerpt belongs to a sample that is enriched for the highest values.
Hi there, I'd appreciate the recorded PBM E-score for every entry that follows.
Answers are plain numbers.

Example entries begin here.
GTTTTTAA 0.279
GTGTGTTA 0.435
ACATATAT 0.27
GTGAAATA 0.185
CCCGACAG -0.191
CATTACAC 0.474
TCTAAGCA -0.0643
TCCAACAA 0.264
CCAACCCG -0.242
GTCGCGTA 0.414

Batch request: PBM E-score per item, same order as input.
1. ACCCTGCA
2. AGAACCAT
3. CATAACAC
4. CGGTGCGC
5. TCTTACAA
6. TCGACAGA
7. GCTAACAC
8. ATCATGAA

A:
0.0038
0.116
0.397
-0.279
0.229
-0.0778
0.366
-0.0623

###

Target: Hmlalpha2 (UniProt P0CY09)
Sequence: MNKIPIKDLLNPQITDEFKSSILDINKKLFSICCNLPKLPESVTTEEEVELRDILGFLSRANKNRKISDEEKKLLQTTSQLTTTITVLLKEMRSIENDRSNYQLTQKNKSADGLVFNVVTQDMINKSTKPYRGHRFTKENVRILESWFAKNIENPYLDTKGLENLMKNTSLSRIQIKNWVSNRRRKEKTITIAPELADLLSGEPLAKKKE
Experiment: PBM E-score (8-mer binding enrichment) (E-score (-0.5 to 0.5)); higher = stronger / more preferred TF binding
Conditions: protein concentration: 200 nM; construct: GST-full length
Over roughly 33,000 sequences, “E-score (-0.5 to 0.5)” has its median near -0.04; the highest 2% begin near 0.36. Shown is part of a subset that was picked to be rich in the highest values.
# label = true (1) if PBM E-score >= 0.2 else false (0)

Worked examples, 4 sequences total:
GTTTAAAC true (1)
ATACACTA false (0)
ACATGGCC true (1)
CAGCATCC false (0)

Q: Dear colleague, could you confirm whether `CGTGTGTA` has PBM E-score at or above 0.2?
A: true (1)

Q: Does the sequence `CCATGGTA` have recorded PBM E-score that is 0.2 or more?
A: false (0)

Q: Does the sequence `ATACACGA` have recorded PBM E-score that is 0.2 or more?
A: true (1)

Q: // inclusive: PBM E-score at least 0.2? input: `CGGCGGCC`
A: false (0)

###

Target: Hmlalpha2 (UniProt P0CY09)
Sequence: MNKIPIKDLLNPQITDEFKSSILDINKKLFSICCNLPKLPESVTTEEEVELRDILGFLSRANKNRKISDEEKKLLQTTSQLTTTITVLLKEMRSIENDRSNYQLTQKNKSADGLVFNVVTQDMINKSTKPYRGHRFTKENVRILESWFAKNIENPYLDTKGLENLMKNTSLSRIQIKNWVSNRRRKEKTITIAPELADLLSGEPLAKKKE
Assay: PBM E-score (8-mer binding enrichment) (E-score (-0.5 to 0.5)); higher = stronger / more preferred TF binding
Settings: protein concentration: 200 nM; construct: GST-full length
Whole data set: some 33,000 sequences, median “E-score (-0.5 to 0.5)” near -0.04, cut for the highest 2% near 0.36. This is one part of a sample in which the highest values are shown more often than they occur.
Provide the recorded PBM E-score for the entries that follow.
Give bare numbers.

ATTATGTG 0.17

Give measured PBM E-score for every item shown.
1. CTTATGCA
2. GTTATGAA
3. ATTATGTA
4. ATTATGTC
5. ACACGGGG
6. ACACGGGC
7. ACACGGCT

A:
[0.135, 0.186, 0.415, 0.164, 0.3, 0.325, 0.32]

Provide reported PBM E-score for each item, in the same order as listed.
1. GTTATGCA
2. GTTATGTA
3. ACACGGGA

A:
1. 0.00491
2. 0.419
3. 0.371
